target: wild type human HSD17B13 (Homo sapiens (Human)); assay: HEK_Beta-Est LCMS_IC50_Tekcel, whole-cell HEK-HSD17B13 inhibition assay, estrone production by LCMS; conditions: geometric mean, HEK cells stably expressing wild type human HSD17B13, 25 μM FAC beta-estradiol, read-out: HEK_Beta-Est LCMS_IC50—Tekcel GMean IC50
Sequence (Q7Z5P4 20-300): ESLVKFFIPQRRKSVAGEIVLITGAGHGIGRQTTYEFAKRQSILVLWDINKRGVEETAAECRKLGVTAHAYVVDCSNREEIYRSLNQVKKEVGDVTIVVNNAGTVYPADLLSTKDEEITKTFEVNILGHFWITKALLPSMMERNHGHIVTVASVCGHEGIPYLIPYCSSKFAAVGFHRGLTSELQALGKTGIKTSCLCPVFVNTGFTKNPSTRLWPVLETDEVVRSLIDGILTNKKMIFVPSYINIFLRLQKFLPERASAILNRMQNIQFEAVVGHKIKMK
Counter-ions that a name gives are not always drawn.
attributeMeasured: IC50 (nM)
Lab book: enter the figure in nM, no units written.

{"compound": "COc1cc(-c2ccc3cn([C@H]4CC[C@H](CNC(=O)c5cc(F)c(O)c(F)c5)CC4)nc3c2)ccn1 [Example 106, trifluoroacetate salt]", "valueUnits": "nM", "IC50": 150}
{"compound": "O=C(NC[C@]12CC[C@](n3cc4ccc(-c5cnccn5)cc4n3)(CC1)CC2)c1cc(F)c(O)c(F)c1", "valueUnits": "nM", "IC50": 120}
{"compound": "COc1cccc(-c2ccc3cn([C@H]4CC[C@H](CNC(=O)c5cc(F)c(O)c(F)c5)CC4)nc3c2)c1", "valueUnits": "nM", "IC50": 350}
{"compound": "O=C(NC[C@H]1CC[C@H](n2cc3ccc(Cl)cc3n2)CC1)c1cc(F)c(O)c(F)c1F", "valueUnits": "nM", "IC50": 300}

Lab note: measured IC50 of `Cc1ncc(-c2ccc3cn([C@H]4CC[C@H](CNC(=O)c5cc(F)c(O)c(F)c5)CC4)nc3c2)s1` was 170

Lab note: measured IC50 of `Cc1ccc2cn([C@H]3CC[C@H](CNC(=O)c4cc(F)c(O)c(F)c4)CC3)nc2c1` was 330

Lab note: measured IC50 of O=C(NC[C@H]1CC[C@H](n2cc3ccc(-c4cnn(C(CO)CCl)c4)cc3n2)CC1)c1cc(F)c(O)c(F)c1 (some centres unmarked) [Example 164, trifluoroacetate salt] was 230

Lab note: measured IC50 of O=C(NC[C@H]1CC[C@H](n2cc3ccc(-c4ccn5ccnc5c4)cc3n2)CC1)c1cc(F)c(O)c(F)c1 [Example 117, trifluoroacetate salt] was 180

Lab note: measured IC50 of O=C(NC[C@H]1CC[C@H](n2cc3ccc(Cl)cc3n2)CC1)c1cc(F)c(O)cc1F [Example 144, trifluoroacetate salt] was 440

Lab note: measured IC50 of `N#Cc1cccc(-c2ccc3cn([C@H]4CC[C@H](CNC(=O)c5cc(F)c(O)c(F)c5)CC4)nc3c2)c1` was 230

Lab note: measured IC50 of `O=C(NC[C@H]1CC[C@H](c2nc(-c3ccc(C(F)(F)F)cn3)no2)CC1)c1cc(F)c(O)c(F)c1` was 470

Lab note: measured IC50 of `O=C(NC[C@H]1CC[C@H](n2cc3ccc(-c4ncccn4)cc3n2)CC1)c1cc(F)c(O)c(F)c1F` was 180

Lab note: measured IC50 of `O=C(NC[C@]12CC[C@](n3cc4ccc(-c5ncccn5)cc4n3)(CC1)CC2)c1cc(F)c(O)c(F)c1` was 140

Lab note: measured IC50 of `Cn1cc(-c2ccc3cn([C@H]4CC[C@H](CNC(=O)c5cc(F)c(O)c(F)c5)CC4)nc3c2)c(C(F)F)n1` was 310
